Measured z-scoreHeLa mean, listed per entry for reference.
# System: HeLa cells
# TEST DETAILS: Compound screen by flow cytometry: HeLa cell count as surrogate readout of cell viability (z-scoreHeLa); further: test concentration or dose not given here
# Format: cell-based, human
# TEST CONTEXT: PKIS compound screen, mean of 3 replicates
// keep it numeric: no unit symbol after the value

O=C(Nc1n[nH]c2nc(-c3ccccc3)c(Br)cc12)C1CC1 [SB-708998]
0.29
COc1cc(N2CCN(C(C)C)CC2)ccc1Nc1nc(Nc2ccc(F)cc2C(N)=O)c2cc[nH]c2n1 [GSK1220512A]
-0.69
CN(C)c1cc2c(Nc3ccc4c(cnn4Cc4ccccc4)c3)ncnc2cn1 [GW282974X]
1.58
Cc1n[nH]c2ccc(-c3cc(OC[C@@H](N)Cc4ccccc4)cnc3-c3ccoc3)cc12 [GSK507358A]
1.21
c1ccc(Cc2nc3ccc(Nc4ncnc5ccccc45)cc3[nH]2)cc1 [GR269666A]
0.30
Cc1nnc(-c2ccc(C)c(-c3ccc(C(=O)NCc4ccc(Cl)cc4)cc3)c2)o1 [GW708893X]
0.63
Cc1cccc(-c2nc(Nc3cccc(C(N)=O)c3)c3ccccc3n2)n1 [GW876019X]
-1.99
CS(=O)(=O)CCNCc1ccc(-c2ccc3ncnc(Nc4ccc(OCc5ccccc5)c(Cl)c4)c3c2)o1 [GW574783B]
1.91

Problem: Request the reported z-scoreHeLa mean associated with Cc1cccc(-c2nc(Nc3ccc4ncsc4c3)c3ccccc3n2)n1 [GW867588X]
Solution: 1.67

Problem: Request the reported z-scoreHeLa mean associated with CCn1c(-c2nonc2N)nc2c(C#CC(C)(C)O)nc(OCCNC)cc21 [GSK949675A]
Solution: 1.02

Problem: Request the reported z-scoreHeLa mean associated with COc1ccc(Nc2nccc(N3CCC(NC(=O)Nc4cccc(OC)c4)C3)n2)cc1 (centres unmarked) [GSK1379742A]
Solution: 1.53

Problem: Request the reported z-scoreHeLa mean associated with COC(=O)c1ccc2c(c1)C(=Cc1cc(Br)c(O)c(Br)c1)C(=O)N2 [GW405841X]
Solution: 1.55

Problem: Request the reported z-scoreHeLa mean associated with CCCNC(=O)Nc1ccc(N(C)c2ccnc(NC3CC3)n2)cc1 [GW818933X]
Solution: 0.64

Problem: Request the reported z-scoreHeLa mean associated with O=C(Nc1ccccc1F)NC1CCN(c2ccnc(Nc3ccc(F)cc3)n2)CC1 [GSK1379800A]
Solution: 0.79

Problem: Request the reported z-scoreHeLa mean associated with [O-][S+]1CCN(Cc2ccc(-c3ccc4ncnc(Nc5ccc(OCc6ccccc6)c(Cl)c5)c4c3)o2)CC1 [GW583373A]
Solution: 1.46

Problem: Request the reported z-scoreHeLa mean associated with Cc1nn2c(=O)cc(N3CCOCC3)nc2n1Cc1cccc(Cl)c1Cl [GSK2342769A]
Solution: -1.49

Problem: Request the reported z-scoreHeLa mean associated with COC(=O)c1cccc(NC(=O)NC2CCN(c3ccnc(Nc4ccc(OC)cc4)n3)C2)c1 (centres unmarked) [GSK1379746A]
Solution: -0.86

###

# Test system: HeLa cells
# TEST DETAILS: Compound screen by flow cytometry: HeLa cell count as surrogate readout of cell viability (z-scoreHeLa); further: test concentration or dose not given here
# Format: cell-based, human
# TEST CONTEXT: PKIS compound screen, HeLa cell count, replicate 2
Exam item: assign class 1 to entries whose z-scoreHeLa rep 2 is below 0.3 and class 0 to entries at or above 0.3. Note that a value of exactly 0.3 receives class 0.

Problem: Item `CN1CCC(n2cnc(-c3ccc(F)cc3)c2-c2ccnc(Nc3ccccc3)n2)CC1` : z-scoreHeLa rep 2 beneath 0.3, strictly?
Solution: class 1

Numbers sourced from paper PMC10999543.
